# Test system: MOLT-4
# protocolDescription: NCI tumour cell line growth inhibition, 48 h
Activity calls are given as the source filed them. No stated cut-off is given here; in the data, active = GI50 up to about 1.1 µM and inactive = higher.
Can you answer with just one of these options? active, inactive

[
  {
    "compound": "Nc1ccc(-c2nc3cc(F)ccc3s2)cc1CO",
    "label": "inactive"
  }
]

Inquiry: Dear colleague, could you share the recorded outcome for CC(=O)OC1C(COC(N)=O)OC(n2c(-c3ccc(C)cc3)cc(-c3ccccc3)c(C#N)c2=O)C(OC(C)=O)C1OC(C)=O (stereo unspecified) when you have a moment?
Reply text: inactive

Inquiry: Given Cc1c(-c2ccccc2)c(-c2ccc(OCCN(C)C)cc2)n2ccccc12 , state the outcome it received in this test.
Reply text: inactive

Inquiry: Record lookup: outcome of this test for CCN(CC)CCN1CCc2c([nH]c3ccccc23)C1c1cccnc1 (stereo unspecified) ?
Reply text: inactive

Inquiry: Which outcome did this test record for the compound CC(=O)Oc1c(C)cc2c(c1C)C(C)CN2C(C)=O (stereo unspecified) ?
Reply text: inactive

Inquiry: Hi team, can someone confirm the assay call for CN(C)CCCn1c(Cn2nc3ccccc3n2)nc2cc(C(F)(F)F)ccc21 ?
Reply text: inactive

Inquiry: Short answer needed: outcome of this test for CC12OC3(O)C4C5CC(C6C5C3C61)C42 (stereo unspecified) ?
Reply text: inactive

Inquiry: For this compound, state the assay outcome: c1ccc2c(c1)c1c(n2CCOCCN2CCCCC2)CCCC1
Reply text: inactive

Inquiry: // param item: COc1ccc(-c2cc(-c3ccccc3)c(C#N)c(=O)[nH]2)cc1 ; yields the recorded call
Reply text: inactive

Inquiry: So what was the verdict on O=C(Nc1noc(-c2ccccc2)n1)c1ccccc1CNc1noc(-c2ccccc2)n1 in this test?
Reply text: inactive

Inquiry: What did the test return for CCCCCCNC(=O)CCN(C(=O)O)S(=O)(=O)c1ccc(NC(=O)c2ccccc2)cc1 ?
Reply text: inactive

Inquiry: Which outcome was entered for the compound Cc1cc(N(CCC#N)CCC#N)ccc1/C=C(/NC(=O)/C=C/c1ccccc1)C(N)=O in this test?
Reply text: inactive

Inquiry: Recorded test call requested for NC(=O)c1ncn(C2OC(CO)C(O)C2O)c1NC(=S)NC(=O)c1ccccc1 (stereo unspecified)
Reply text: inactive

Inquiry: For COc1ncc(C#CC(=O)c2ccccc2OC)c(OC)n1 , which call appears in the assay record?
Reply text: active

Inquiry: Call for entry Cc1nc2c(=O)n(C)ncc2[nH]1 :
Reply text: inactive

Inquiry: Tell me the recorded outcome of this test for CC(C)CC1c2[nH]c3ccccc3c2C[C@H]2C(=O)NC(Cc3c[nH]c4ccccc34)C(=O)N12 (stereo partly specified) .
Reply text: inactive

Inquiry: Per the records of this test, what outcome belongs to COCOCCC#CCO ?
Reply text: inactive

Inquiry: I would be grateful if you could indicate the recorded call for O=C1c2ccccc2S(=O)(=O)c2cc(-c3nn[nH]n3)ccc21 [DOXANTRAZOLE] .
Reply text: inactive

Inquiry: What is the recorded call for this compound in the test? N=c1oc2ccc(Cl)cc2cc1C(N)=O
Reply text: inactive

* * *

# System: OVCAR-5
# protocolDescription: NCI tumour cell line growth inhibition, 48 h
The source made the active and inactive calls. Rule as the data show it: active = GI50 up to about 1.1 µM and inactive = higher.
Item-by-item account of GI50

Below: 8 compounds and their reported GI50.
[
  {
    "compound": "COc1ncc(C#CC(=O)c2ccccc2OC)c(OC)n1",
    "reportedMeasurement": "3.41 µM (inactive)"
  },
  {
    "compound": "CCN(CC)C1CCC(C2c3cc4c(cc3OC(N3CCOCC3)C2C)OCO4)CC1 (stereo not given)",
    "reportedMeasurement": "36.4 µM (inactive)"
  },
  {
    "compound": "Cc1ccc2c(=O)c(-c3nnc(N)s3)c[nH]c2n1",
    "reportedMeasurement": "> 100 µM (inactive)"
  },
  {
    "compound": "O=C(CCc1ccc(O)c(O)c1)NCCc1cc(O)cc(OCc2ccccc2)c1",
    "reportedMeasurement": "87.9 µM (inactive)"
  },
  {
    "compound": "Cc1[nH]c2ncn3[nH]c(=S)nc3c2c1Cc1ccccc1",
    "reportedMeasurement": "> 100 µM (inactive)"
  },
  {
    "compound": "CCOC1CN=C(Nc2cccc3ccccc23)S1 (stereo not given)",
    "reportedMeasurement": "> 10 µM (inactive)"
  },
  {
    "compound": "COc1ccc(CNC(C)C(=O)O)cc1 (stereo not given)",
    "reportedMeasurement": "> 100 µM (inactive)"
  },
  {
    "compound": "Cn1c(=O)nc2n(-c3ccc(F)cc3)c3ccccc3nc-2c1=O",
    "reportedMeasurement": "24.3 µM (inactive)"
  }
]

Inquiry: GI50 of CP1(=O)CCCCC1 on OVCAR-5?
Reply text: > 100 µM (inactive)

Inquiry: Record lookup: for OVCAR-5, what GI50 belongs to COc1ccc2c(C=O)c3n(c(=O)c2c1OC)CCc1cc2c(cc1-3)OCO2 ?
Reply text: > 100 µM (inactive)

* * *

# Test system: T47D
# protocolDescription: NCI tumour cell line growth inhibition, 48 h
Active and inactive are the calls of the source. Cut-off read from the data, not from the text of the source: active = GI50 up to about 1.1 µM and inactive = higher.
Returns: one label drawn from active, inactive

[
  {
    "compound": "C=C1CN(C2=NCCO2)C1",
    "systemTested": "T47D",
    "label": "inactive"
  }
]

Inquiry: For O=C1c2ccccc2/C(=N\c2ccc3ccccc3c2)C1(C1=C(c2ccccc2)/C(=N/c2ccc3ccccc3c2)c2ccccc21)c1ccccc1 (configuration not stated) , which call appears in the assay record?
Reply text: inactive

Inquiry: Please share the test call associated with O=C(Nc1noc(-c2ccccc2)n1)c1ccccc1CNc1noc(-c2ccccc2)n1 .
Reply text: inactive

Inquiry: Test call for this compound, please: CN(c1ccccc1)S(=O)(=O)c1ccccc1[N+](=O)[O-]
Reply text: inactive

Inquiry: GET /call?item= N=c1oc2ccccc2cc1-c1nc2ccccc2c(=O)[nH]1 returns the recorded outcome of this test.
Reply text: inactive

Inquiry: Outcome logged for CC[P+](C#Cc1ccccc1)(c1ccccc1)c1ccccc1 in this assay:
Reply text: inactive

* * *

System: HCT-15 | Read-out: GI50

A selection of reference data follows.
[
  {
    "compound": "OC12c3ccccc3C1CCCCC2N1CCCC1 (stereo not given)",
    "reportedMeasurement": "> 100 µM"
  },
  {
    "compound": "CCOC1CN=C(Nc2cccc3ccccc23)S1 (stereo not given)",
    "reportedMeasurement": "> 10 µM"
  },
  {
    "compound": "CCN(CC)CCN1CCc2c([nH]c3ccccc23)C1c1cccnc1 (stereo not given)",
    "reportedMeasurement": "> 100 µM"
  },
  {
    "compound": "C=CCC1C(=O)Nc2cccc3ncn(c23)C1=O (stereo not given)",
    "reportedMeasurement": "> 100 µM"
  },
  {
    "compound": "CCCCCCCCCCCCCCCCCc1cccc(OCOCCOC)c1CO",
    "reportedMeasurement": "> 100 µM"
  }
]

Inquiry: Give recorded GI50 with HCT-15 for the following compound: CCCCCCCCCCOc1ccc(/N=N/c2nnc(-c3ccc(OCCCCC)cc3)s2)cc1
Reply text: > 100 µM

Inquiry: Observed GI50 on HCT-15 for O=c1[nH]nc(Cc2ccccc2)n1/N=C/c1ccccc1Cl , please.
Reply text: > 100 µM

Inquiry: Please state recorded GI50 (tested on HCT-15) of Nn1c(S)nnc1NNC(=O)C(=O)Nc1cc(Cl)c(Cl)cc1Cl
Reply text: > 100 µM

* * *

# Test system: SK-MEL-5
# protocolDescription: NCI tumour cell line growth inhibition, 48 h
Active and inactive are the calls of the source. Rule as the data show it: active = GI50 up to about 1.1 µM and inactive = higher.
recordedEndpoint: GI50

For orientation, consider the following solved cases.
[
  {
    "smilesText": "[N-]=[N+]=CC(=O)C1(C(=O)C=[N+]=[N-])CC1",
    "GI50": "> 100 µM (inactive)"
  },
  {
    "smilesText": "CN(C)S(=O)(=O)n1cnc(CO)c1",
    "GI50": "> 100 µM (inactive)"
  }
]

Now look at this entry.
Inquiry: Field request: GI50 | item: Clc1ccc(CCN2CCOCC2)c(Cl)c1
Reply text: > 100 µM (inactive)

* * *

Measured GI50, listed per entry for reference.
# System: SK-MEL-5
# protocolDescription: NCI tumour cell line growth inhibition, 48 h
Activity calls are given as the source filed them. Rule as the data show it: active = GI50 up to about 1.1 µM and inactive = higher.

[
  {
    "compound": "Oc1ccc[n+](Cc2ccccc2)c1",
    "reportedMeasurement": "> 100 µM (inactive)"
  },
  {
    "compound": "CNC(=O)c1ccccc1-[s+]1c2ccccc2c(=O)n1C (stereo not drawn)",
    "reportedMeasurement": "> 100 µM (inactive)"
  },
  {
    "compound": "COc1cc2c3c(n(C)c(=O)c2cc1OC)-c1cc2c(cc1/C3=C\\CCCI)OCO2",
    "reportedMeasurement": "10.4 µM (inactive)"
  },
  {
    "compound": "COc1ccc2c(c1)-c1nc(=S)n(CCN(C)C)c3ccc([N+](=O)[O-])c(c13)N2",
    "reportedMeasurement": "3.65 µM (inactive)"
  },
  {
    "compound": "Nc1ncnc2c1ncn2COC/C=C/I",
    "reportedMeasurement": "> 100 µM (inactive)"
  }
]

Inquiry: Quick one: GI50 of c1ccc(CN[C@]23C4C5CC6C7C5C2C7[C@@](NCc2ccccc2)(C64)N3Cc2ccccc2)cc1 (stereo partly drawn) ?
Reply text: > 100 µM (inactive)

Inquiry: What value of GI50 has been recorded for this entry: CCP(=O)(CC)C(Cl)(Cl)C(=O)NC
Reply text: > 100 µM (inactive)

Inquiry: Item under review: CC(=O)SC(SC(C)=O)SC(C)=O . Reported GI50?
Reply text: > 100 µM (inactive)

Inquiry: # query: GI50 of entry O/N=C/C1C(OCc2ccccc2)C(OCc2ccccc2)C(OCc2ccccc2)CN1Cc1ccccc1 (stereo not drawn)
Reply text: 11.7 µM (inactive)

Inquiry: Request the reported GI50 associated with O=c1[nH]nc(Cc2ccccc2)n1/N=C/c1ccccc1Cl
Reply text: > 100 µM (inactive)
